# Test system: MDR1 (wild type)
# ASSAY INFO: Cytotoxic drug sensitivity assay (MTS)
# Format: cell-based, human
# MEASUREMENT CONDITIONS: human, HEK293 cells recombinantly expressing MDR1 wild type, HEK MDR1 WT; 72hours, MTS; read-out: EC50 (Mean ± S.D.)
MEASURED METRIC: EC50 at 72 h

COc1cccc2c1C(=O)c1c(O)c3c(c(O)c1C2=O)C[C@@](O)(C(=O)CO)C[C@@H]3O[C@H]1C[C@H](N)[C@H](O)[C@H](C)O1 1110 nM
CC[C@]1(O)C[C@@H]2CN(CCc3c([nH]c4ccccc34)[C@@](C(=O)OC)(c3cc4c(cc3OC)N(C)[C@H]3[C@@](O)(C(=O)OC)[C@H](OC(C)=O)[C@]5(CC)C=CCN6CC[C@]43[C@@H]65)C2)C1 127 nM
CC(=O)O[C@H]1C(=O)[C@@]2(C)[C@H]([C@H](OC(=O)c3ccccc3)[C@]3(O)C[C@H](OC(=O)[C@H](O)[C@@H](NC(=O)c4ccccc4)c4ccccc4)C(C)=C1C3(C)C)[C@]1(OC(C)=O)CO[C@@H]1C[C@@H]2O 128 nM

// below: EC50 at 72 h requested for another compound
[in] State EC50 at 72 h (MDR1 (wild type)) of `CC[C@]1(O)C[C@H]2CN(CCc3c([nH]c4ccccc34)[C@@](C(=O)OC)(c3cc4c(cc3OC)N(C=O)[C@H]3[C@@](O)(C(=O)OC)[C@H](OC(C)=O)[C@]5(CC)C=CCN6CC[C@]43[C@@H]65)C2)C1` .
[out] 710 nM
